Value source: ChEMBL document CHEMBL2086264

- System: Bacillus anthracis
- assay.details: Inhibition of DNA synthesis in Bacillus anthracis sterne assessed as Inhibition of [3H]thymidine incorporation into DNA incubated for 15 mins prior to [3H]thymidine addition measured after 30 mins by scintillation counting
- Type: functional, organism-based
Active and inactive are the calls of the source. The rule behind the calls is not given here.
observable: inhibition

Previously resolved entries follow.
Assay Bacillus anthracis, sample "CCCCCCCCCCCCCCCC(=O)NS(=O)(=O)Oc1ccc(-c2ccc([N+](=O)[O-])cc2)cc1" , inhibition read: Active

Assay Bacillus anthracis, sample "O=C(CCCCCCCc1ccccc1)NS(=O)(=O)Oc1ccccc1" , inhibition read: Active

Assay Bacillus anthracis, sample "CCCCCCCCCCCCCCCC(=O)NS(=O)(=O)Oc1ccc(C(=O)OCC)cc1" , inhibition read: Active

Assay Bacillus anthracis, sample "CCCCCCCCCCCCCCCC(=O)NS(=O)(=O)Oc1ccc2ncccc2c1" , inhibition read: Active

Assay Bacillus anthracis, sample "CCCCCCCCCCCCCCCC(=O)NS(=O)(=O)Oc1ccc(Cl)cc1" , inhibition read: Active

Assay Bacillus anthracis, sample "O=C(CCCCCCCCCCc1ccccc1)NS(=O)(=O)Oc1ccccc1" , inhibition read: Active

Assay Bacillus anthracis, sample "CCCCCCCCCCCCCCCC(=O)NS(=O)(=O)Oc1ccc(CCN)cc1" , inhibition read: Active

Assay Bacillus anthracis, sample CCCCCCCCCCCCCCCC(=O)NS(=O)(=O)OC [METHYL PALMITOYLSULFAMATE] , inhibition read: Active

Assay Bacillus anthracis, sample "CCCCCCCCCCCCCC(=O)NS(=O)(=O)Oc1ccc(OC)cc1" , inhibition read: Active

Assay Bacillus anthracis, sample CCCCCCCCCCCCCCCC(=O)NS(=O)(=O)OC1CCOC1 (stereo not drawn) , inhibition read: Active

Next:
Assay Bacillus anthracis, sample "CCCCCCCCCCCCCCCC(=O)NS(=O)(=O)Oc1ccc2c(c1)OCO2" , inhibition read: Active

Assay Bacillus anthracis, sample "CCCCCCCCCCCCCCCC(=O)NS(=O)(=O)Oc1ccc(CC(=O)OC)cc1" , inhibition read: Active

Assay Bacillus anthracis, sample "O=C(CCCCCCc1ccccc1)NS(=O)(=O)Oc1ccccc1" , inhibition read: Active

Assay Bacillus anthracis, sample "CCCCCCCCCCCCCCCC(=O)NS(=O)(=O)OC1CCN(C(=O)OC(C)(C)C)CC1" , inhibition read: Active

Assay Bacillus anthracis, sample CCCCCCCCCCCCCCCC(=O)NS(=O)(=O)OC1CCCC1 [CYCLOPENTYL PALMITOYLSULFAMATE] , inhibition read: Active

Assay Bacillus anthracis, sample "CCCCCCCCCCCCCCCC(=O)NS(=O)(=O)Oc1ccc(OC)cc1" , inhibition read: Active

Assay Bacillus anthracis, sample CCCCCCCCCCCCCCCC(=O)NS(=O)(=O)OC1CCCCC1 [CYCLOHEXYL PALMITOYLSULFAMATE] , inhibition read: Active

Assay Bacillus anthracis, sample "CCCCCCCCCCCCCCCC(=O)NS(=O)(=O)Oc1ccc2c(OS(N)(=O)=O)coc2c1" , inhibition read: Active

###

- Test system: Bacillus anthracis
- assay.details: Antibacterial activity against Bacillus anthracis after overnight incubation by microbroth dilution assay
- Assay type: functional
observable: MIC90 (µg/mL)
# number only, unit µg/mL dropped from output

Previously resolved entries follow.
Measured MIC90 of "CCCCCCCCCCCCCCCC(=O)NS(=O)(=O)Oc1cccc(Cl)c1" : 3.13

Measured MIC90 of "CCCCCCCCCCCCCCCC(=O)NS(=O)(=O)Oc1ccc(C(=O)OCC)cc1" : 3.13

Measured MIC90 of "CCCCCCCCCCCCCC(=O)NS(=O)(=O)Oc1ccc(OC)cc1" : 0.78

Measured MIC90 of "CCCCCCCCCCCCCCCC(=O)NS(=O)(=O)Oc1ccc2c(OS(N)(=O)=O)coc2c1" : 3.13

Next:
Measured MIC90 of CCCCCCCCCCCCCCCC(=O)NS(=O)(=O)OC1CCCCC1 [CYCLOHEXYL PALMITOYLSULFAMATE] : 6.25

Measured MIC90 of "CCCCCCCCCCCCCCCC(=O)NS(=O)(=O)Oc1ccc2ncccc2c1" : 3.13

Measured MIC90 of "O=C(CCCCCc1ccccc1)NS(=O)(=O)Oc1ccccc1" : 100

Measured MIC90 of "CCCCCCCCCCCCCCCC(=O)NS(=O)(=O)Oc1ccc(-c2ccc([N+](=O)[O-])cc2)cc1" : 1.56

Measured MIC90 of "CCCCCCCCCCCCCCCC(=O)NS(=O)(=O)Oc1ccc(CCNC(=O)OC(C)(C)C)cc1" : 1.56

Measured MIC90 of "O=C(CCCCCCCc1ccccc1)NS(=O)(=O)Oc1ccccc1" : 6.25

Measured MIC90 of "CCCCCCCCCCCCCCCC(=O)NS(=O)(=O)OC1CCN(C(=O)OC(C)(C)C)CC1" : 3.13

Measured MIC90 of "CCCCCCCCCCCCCCCC(=O)NS(=O)(=O)Oc1ccc(Cl)c(Cl)c1" : 12.5

Measured MIC90 of "CCCCCCCCCCCCCCCC(=O)NS(=O)(=O)Oc1ccc(OC)cc1" : 3.13

Measured MIC90 of "C=CCCCCCCCCC(=O)NS(=O)(=O)Oc1ccc(OC)cc1" : 12.5

Measured MIC90 of "CCCCCCCCCCCCCCCC(=O)NS(=O)(=O)Oc1ccc(CC(=O)OC)cc1" : 3.13

Measured MIC90 of CCCCCCCCCCCCCCCC(=O)NS(=O)(=O)OC1CCOC1 (stereo not drawn) : 1.56

Measured MIC90 of "CCCCCCCCCCCCCCCC(=O)NS(=O)(=O)OC1CCOCC1" : 3.13

Measured MIC90 of "CCCCCCCCCCCCCCCC(=O)NS(=O)(=O)Oc1ccc(C)cc1" : 6.25
